- method: Inhibition of bacterial beta-lactamase CMY-2 using nitrocefin as substrate incubated for 20 mins
- Design: species or system Bacteria
recorded endpoint: IC50 (nM)
Quick note: give the figure in nM, leave out the unit.

Below, each entry is followed by its recorded IC50 result.
NC(=O)OCC[S@@+]([O-])[C@@H]1CC[C@@H]2CN1C(=O)N2O[C@H](F)C(=O)[O-].[Na+]
64
Nc1ncc(C[S@@+]([O-])[C@@H]2CC[C@@H]3CN2C(=O)N3O[C@H](F)C(=O)[O-])s1.[Na+]
41
NC(=O)C[S@@+]([O-])[C@@H]1CC[C@@H]2CN1C(=O)N2O[C@H](F)C(=O)[O-].[Na+]
57

Shift focus to the following entry.
Input line: Dear colleague, I am looking for the recorded IC50 of the following compound: N#CC[S@@+]([O-])[C@@H]1CC[C@@H]2CN1C(=O)N2O[C@H](F)C(=O)[O-].[Na+]
Output line: 96

Reference source for all entries: ChEMBL document CHEMBL5236549
